Tested on: NCI-H196 complex spheroids with HUVEC/MSC, growth % T/C
Experiment: Anticancer human tumor NCI-H196 cell line growth inhibition [Asc];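 further: spheroids exposed to compound for 7 days before measurement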
Details: curve of first compound; second compound 1 µM

molecule	IC50
Cc1nc(N2CCC3(CC2)COC(C)C3N)c(CO)nc1Sc1ccnc(N)c1Cl (stereo not given) + CNC(C)C(=O)NC1CN(S(=O)(=O)c2cccc(S(=O)(=O)N3CCC4CCC(C(=O)NC(c5ccccc5)c5ccccc5)N4C(=O)C(NC(=O)C(C)NC)C3)c2)CCC2CCC(C(=O)NC(c3ccccc3)c3ccccc3)N2C1=O	< 9.49 nM
Cn1ncnc1[C@H]1c2n[nH]c(=O)c3cc(F)cc(c23)N[C@@H]1c1ccc(F)cc1 + CNC(C)C(=O)NC1CN(S(=O)(=O)c2cccc(S(=O)(=O)N3CCC4CCC(C(=O)NC(c5ccccc5)c5ccccc5)N4C(=O)C(NC(=O)C(C)NC)C3)c2)CCC2CCC(C(=O)NC(c3ccccc3)c3ccccc3)N2C1=O	< 0.316 nM
C=C(F)C(=O)N1CCN(c2nc(OCC3CCCN3C)nc3c2CCN(c2cccc4cccc(Cl)c24)C3)CC1CC#N (stereo not given) + CNC(C)C(=O)NC1CN(S(=O)(=O)c2cccc(S(=O)(=O)N3CCC4CCC(C(=O)NC(c5ccccc5)c5ccccc5)N4C(=O)C(NC(=O)C(C)NC)C3)c2)CCC2CCC(C(=O)NC(c3ccccc3)c3ccccc3)N2C1=O	< 31.6 nM
COc1c(OCCCN2CCOCC2)ccc2c3n(c(=NC(=O)c4cnc(N)nc4)nc12)CCN3 + CNC(C)C(=O)NC1CN(S(=O)(=O)c2cccc(S(=O)(=O)N3CCC4CCC(C(=O)NC(c5ccccc5)c5ccccc5)N4C(=O)C(NC(=O)C(C)NC)C3)c2)CCC2CCC(C(=O)NC(c3ccccc3)c3ccccc3)N2C1=O	< 3.16 nM
COc1c(OCCCN2CCOCC2)ccc2c3n(c(=NC(=O)c4cnc(N)nc4)nc12)CCN3 + Cc1c(S(C)(=O)=O)c(-c2cc(F)cc(N3CCN(c4ccc(NS(=O)(=O)c5ccc(NC(CCN6CCC(C(=O)OCCCP(=O)(O)O)CC6)CSc6ccccc6)c(S(=O)(=O)C(F)(F)F)c5)cc4)CC3)c2)c(-c2ccc(Cl)cc2)n1C(C)C	286 nM
